Target: demineralized bone matrix (DBM)
Assay: Biotinylated peptide binding to demineralized bone matrix (ELISA-type, streptavidin-alkaline phosphatase/pNPP)
Design: species or system human
Settings: bone as represented by DBM; biotinylated composition; read-out: Binding specificity for bone EC50 (compositions X1-J-X2)
Method: Relative binding strengths of the peptides to bone, also used as a measure of binding specificity, were determined by testing serial dilutions of the peptide for binding to bone, as represented by DBM. Plotting the absorbance observed across the concentration range for each peptide sequence yielded a binding curve of the peptides to its target substrate from which can be determined an EC50. […]
pEC50: −log10 of the molar value. Where no end group is shown, it is not given here. The star is where a group is joined. Biotin = O=C1N[C@H]2[C@H](CS[C@H]2CCCCC(=O)*)N1
measured endpoint: pEC50

For orientation, consider the following solved cases.
>>> reported("SFGSWWWGSGAASSRGSSGGGALGFPLKGEVVEGWAGSSGK(Biotin) [compound 140]")
"> 6.30"
>>> reported("SWWGFWNGSAAPVWSRGSSESAGAWEAFSSLSGSRVGSSGK(Biotin) [compound 137]")
"> 6.30"

Switching to the query record.
Q) Specify measured pEC50 for SWWGFWNGSAAPVWSRGSSGAGALGFPLKGEVVEGWAGSSGK(Biotin) [compound 139] .
A) > 6.30
